The following compounds are listed with their measured inhibition values.
Biological target: Voltage-dependent T-type calcium channel subunit alpha-1H (Homo sapiens, UniProt O95180)
Sequence (O95180 whole entry): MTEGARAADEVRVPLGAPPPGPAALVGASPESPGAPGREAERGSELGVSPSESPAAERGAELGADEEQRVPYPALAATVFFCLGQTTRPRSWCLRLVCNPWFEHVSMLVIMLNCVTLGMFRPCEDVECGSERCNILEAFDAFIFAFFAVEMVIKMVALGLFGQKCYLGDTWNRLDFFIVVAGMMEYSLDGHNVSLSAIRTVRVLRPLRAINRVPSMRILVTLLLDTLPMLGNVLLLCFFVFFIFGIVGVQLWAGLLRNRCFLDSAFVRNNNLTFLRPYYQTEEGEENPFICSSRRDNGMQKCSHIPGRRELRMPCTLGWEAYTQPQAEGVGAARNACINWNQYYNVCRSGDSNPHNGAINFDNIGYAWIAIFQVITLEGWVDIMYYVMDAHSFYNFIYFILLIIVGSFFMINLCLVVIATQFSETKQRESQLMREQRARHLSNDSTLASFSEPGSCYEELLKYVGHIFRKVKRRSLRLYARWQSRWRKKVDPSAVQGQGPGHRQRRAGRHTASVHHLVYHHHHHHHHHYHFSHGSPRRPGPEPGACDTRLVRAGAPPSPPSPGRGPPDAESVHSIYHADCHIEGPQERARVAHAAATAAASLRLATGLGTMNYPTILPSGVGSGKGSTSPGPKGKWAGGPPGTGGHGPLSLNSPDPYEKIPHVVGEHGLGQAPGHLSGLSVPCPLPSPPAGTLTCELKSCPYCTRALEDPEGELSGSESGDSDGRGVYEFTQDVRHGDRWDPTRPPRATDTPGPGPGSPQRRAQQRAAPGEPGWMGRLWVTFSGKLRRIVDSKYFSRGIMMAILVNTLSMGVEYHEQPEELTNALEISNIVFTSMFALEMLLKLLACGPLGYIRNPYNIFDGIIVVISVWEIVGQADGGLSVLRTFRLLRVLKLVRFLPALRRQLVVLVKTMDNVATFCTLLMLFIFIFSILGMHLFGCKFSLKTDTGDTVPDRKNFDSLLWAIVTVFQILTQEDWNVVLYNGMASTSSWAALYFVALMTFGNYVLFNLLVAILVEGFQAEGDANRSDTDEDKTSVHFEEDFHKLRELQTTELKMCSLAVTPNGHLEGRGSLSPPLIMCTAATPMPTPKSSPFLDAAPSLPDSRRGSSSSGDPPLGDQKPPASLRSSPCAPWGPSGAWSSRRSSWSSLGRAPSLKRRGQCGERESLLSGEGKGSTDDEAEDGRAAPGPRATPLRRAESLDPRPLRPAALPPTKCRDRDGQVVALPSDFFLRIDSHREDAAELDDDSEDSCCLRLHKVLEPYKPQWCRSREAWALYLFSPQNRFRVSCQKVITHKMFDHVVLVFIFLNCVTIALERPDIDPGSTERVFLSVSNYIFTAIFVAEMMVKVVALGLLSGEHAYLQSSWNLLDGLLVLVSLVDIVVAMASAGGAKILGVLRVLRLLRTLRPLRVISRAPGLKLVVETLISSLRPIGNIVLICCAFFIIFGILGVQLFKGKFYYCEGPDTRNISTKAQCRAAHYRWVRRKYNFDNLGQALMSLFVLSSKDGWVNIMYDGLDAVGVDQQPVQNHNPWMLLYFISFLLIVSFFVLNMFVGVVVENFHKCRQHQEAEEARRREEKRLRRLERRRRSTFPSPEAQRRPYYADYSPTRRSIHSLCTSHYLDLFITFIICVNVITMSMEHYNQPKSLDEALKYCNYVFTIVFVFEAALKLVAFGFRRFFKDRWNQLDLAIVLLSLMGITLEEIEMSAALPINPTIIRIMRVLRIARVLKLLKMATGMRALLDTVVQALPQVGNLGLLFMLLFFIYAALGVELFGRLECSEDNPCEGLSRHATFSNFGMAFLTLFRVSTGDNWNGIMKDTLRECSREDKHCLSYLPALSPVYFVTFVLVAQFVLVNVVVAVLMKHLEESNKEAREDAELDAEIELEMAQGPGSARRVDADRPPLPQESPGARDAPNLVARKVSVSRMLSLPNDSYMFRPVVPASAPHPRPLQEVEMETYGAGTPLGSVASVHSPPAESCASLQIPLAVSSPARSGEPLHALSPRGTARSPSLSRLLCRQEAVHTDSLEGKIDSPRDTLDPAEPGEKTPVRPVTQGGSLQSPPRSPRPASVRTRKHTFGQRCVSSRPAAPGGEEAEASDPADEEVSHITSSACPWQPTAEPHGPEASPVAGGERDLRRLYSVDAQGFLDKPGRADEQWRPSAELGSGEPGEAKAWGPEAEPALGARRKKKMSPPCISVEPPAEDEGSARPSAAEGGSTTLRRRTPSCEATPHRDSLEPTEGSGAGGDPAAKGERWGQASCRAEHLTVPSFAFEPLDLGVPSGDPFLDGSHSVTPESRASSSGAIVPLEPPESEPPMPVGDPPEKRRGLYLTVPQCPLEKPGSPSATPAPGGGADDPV
Test: Antagonist activity at human alpha1H T-type calcium channel expressed in HEK293 cells at 1 uM by patch clamp technique
Format: functional, cell-based
Number in %, nothing else.

CC(=O)N(CCCN(C)S(=O)(=O)c1ccc(Oc2ccccc2)cc1)C(CC(=O)OC(C)C)c1cccc(Cl)c1 (stereo not drawn): 17
CC(=O)Nc1cccc(S(=O)(=O)N(CC(=O)OC(C)C)c2cccc(Cl)c2)c1: 0
CCOC(=O)CN(c1cccc(Cl)c1)S(=O)(=O)c1cccc(NC(=O)CN(C)C(=O)OCc2ccccc2)c1: 35

Please tell me: inhibition of CC(C)OC(=O)CN(c1cccc(Cl)c1)S(=O)(=O)c1cccc(NC(=O)Cc2ccccc2)c1 , system Voltage-dependent T-type calcium channel subunit alpha-1H (Homo sapiens, UniProt O95180)? 40

Please tell me: inhibition of CN(CC(=O)Nc1cccc(S(=O)(=O)N(CC(=O)O)c2cccc(Cl)c2)c1)C(=O)OCc1ccccc1 , system Voltage-dependent T-type calcium channel subunit alpha-1H (Homo sapiens, UniProt O95180)? 11

Please tell me: inhibition of CC(=O)N(CCCN(C)S(=O)(=O)c1ccc(Oc2ccccc2)cc1)Cc1cccc(Cl)c1 , system Voltage-dependent T-type calcium channel subunit alpha-1H (Homo sapiens, UniProt O95180)? 30

Please tell me: inhibition of CC(=O)N(CCCN(C)C(=O)c1ccc(Oc2ccccc2)cc1)Cc1cccc(Cl)c1 , system Voltage-dependent T-type calcium channel subunit alpha-1H (Homo sapiens, UniProt O95180)? 5

Please tell me: inhibition of CN(C)CCNC(=O)CN(c1cccc(Cl)c1)S(=O)(=O)c1cccc(NC(=O)CN(C)C(=O)OCc2ccccc2)c1 , system Voltage-dependent T-type calcium channel subunit alpha-1H (Homo sapiens, UniProt O95180)? 22

###

The following compounds are listed with their measured inhibition values.
Target: Voltage-dependent T-type calcium channel subunit alpha-1H (Homo sapiens, UniProt O95180)
Experiment: Antagonist activity at human alpha1H T-type calcium channel expressed in HEK293 cells at 1 uM by patch clamp technique
Format: functional, cell-based
Number in %, nothing else.

CC(C)OC(=O)c1ccc(NC(=O)CCc2ccccc2)cc1-c1cccc(Cl)c1: 6
CC(C)OC(=O)CN(c1cccc(Cl)c1)S(=O)(=O)c1cccc(NC(=O)CN(C)C(=O)OCc2ccccc2)c1: 78
CC(C)OC(=O)CN(c1cccc(Cl)c1)S(=O)(=O)c1cccc(NC(=O)CCNC(=O)OCc2ccccc2)c1: 73

The record that follows has no inhibition shown yet.
Sample CC(C)OC(=O)c1ccc(NC(=O)CN(C)C(=O)OCc2ccccc2)cc1-c1cccc(Cl)c1 — what was its inhibition? 24

###

Biological target: Voltage-gated L-type calcium channel (Rattus norvegicus, UniProt P22002+Q02485+P27732)
Experiment: Antagonist activity at L-type calcium channel in rat aorta
Assay type: functional, tissue-based
The following molecules are listed with their measured IC50 values.
Number in µM, nothing else.

Example cases with answers are listed next.
CC1=C(C(=O)OC(C)C)C(c2cccc(Cl)c2)N(CCCN(C)C(=O)c2ccc(Oc3ccccc3)cc2)C(=O)N1 (single isomer, unassigned; enantiomer 2): 3.8
CC(C)OC(=O)CN(c1cccc(Cl)c1)S(=O)(=O)c1cccc(NC(=O)CN(C)C(=O)OCc2ccccc2)c1: 15
CC(C)CCCN(c1cccc(Cl)c1)S(=O)(=O)c1cccc(NC(=O)CN(C)C(=O)OCc2ccccc2)c1: 12
COCC(=O)O[C@]1(CCN(C)CCCc2nc3ccccc3[nH]2)CCc2cc(F)ccc2[C@@H]1C(C)C: 7
CC(C)OC(=O)CN(c1cccc(Cl)c1)S(=O)(=O)c1cccc(NC(=O)CCNC(=O)OCc2ccccc2)c1: 17
CN(CC(=O)Nc1cccc(S(=O)(=O)N(Cc2ccccc2)c2cccc(Cl)c2)c1)C(=O)OCc1ccccc1: 12

Sample CC1=C(C(=O)OC(C)C)C(c2cccc(Cl)c2)N(CCCN(C)C(=O)c2ccc(Oc3ccccc3)cc2)C(=O)N1 (centres undefined) — what was its IC50? 2.1
